# measured-on: hMPV A1 F (human metapneumovirus)
# assay-notes: ELISA on coated recombinant protein, OD 405 nm
The label is Satisfied for EC50 below 0.1 µg/mL and Not satisfied for EC50 equal to or exceeding 0.1 µg/mL.

INSERT INTO assay_data (binder, group_label) VALUES
  ('MPV478 (antibody, V domains shown) VH: EVQLVQSGAEVKKPGASVKVSCNASGYTFTGYYIHWVRQAPGQGLEWMGWINPRSGGTNYAQKFQGRVTLTRDTSITTAYMDVTRLRPDDTAVYYCATTREGIVLMPRGRGDDALDTWGQGTTVIVSS VL: DIVMTQSPVSLTVSLGERATINCKSSQSVLSTSNNENYLAWYQQKPGQPPNLLIYWASTRESGVPDRFSGSGSGTDFTLTISSLQAEDVAVYYCQQYFATPITFGPGTKVDVK', 'Satisfied');

A record lists MPV485 (antibody, V domains shown) V domain 1: EVQLQEPGPGLVKPSETLSLTCTVSGGSISSTNSFWGWVRQPPGKGLEWIGSIYYSGTTYYNSSLKSRVTISVDTSKNQFSLRLSSVTAADTAVYYCARQGLTSSWYDGSGLDVWG V domain 2: SYELTQPPSVSVSPGQTASITCSGDKLGNKYACWYQQRPGQSPVLVIYQDTKRPSGIPERFSGSNSGNTATLTISGTQAMDEADYYCQAWDSNTVVFGGGTKLTVL . Is its EC50 below 0.1 µg/mL?
Not satisfied

A record lists MPV487 (antibody, V domains shown) VH: EVQLLESGGGLVQPGRSLRLSCTASGFTFDDYAMHWVRQLPGKGLEWVSGISWNSDNIGYADSVKGRFTISRDNGKNSLYLQMNSLRAEDTAFYYCAKDVRIDYDLLIGHIDYWGPGTLVTVSS VL: TQSPVTLSLSPGERATLSCRASQSFGGYCAWYQQKPGQSPRLLIYDASNRATGVPARFSGSGSGTDFTLTISSLEPEDSAVYFCQQRGNWPIFGQGTRLEI . Is its EC50 below 0.1 µg/mL?
Not satisfied

A record lists MPV414 (antibody, V domains shown) VH: QVQLVQSGPEVKKPGSSVMVSCKTSGGNFNNFAISWVRQAPGQGLEWMGGIVPIFGTANYAQKSQDRVTITADPSSSTAYLQLSSLTSDDTAIYYCARDLGRSSNYYYYSVFESWGQGTLVTVSS VL: DIVMTQSPATLSLSPGERATLSCRASQSVGDKLAWYQQKPGQAPRLLIYGASTRATDIPARFSGSGSGTEFTLTVSSLQPEDFAVYYCQQYENWPPITFGQGTRLEIK . Is its EC50 below 0.1 µg/mL?
Not satisfied

A record lists MPV477 (antibody, V domains shown) VH: EVQLVQSGAEVKKPGASVEVSCKTSGYTFTDYYLHWVRQAPGQGLEWMGWINPRSGGTKYGQKFQGRVTMTRDTSISTAYMDLRGLRSDDTAVYYCARAPLLTVYAVAHRSGENRFDPWGQGTVTVSS VL: QPPSLSGAPGQTVTISCTGSGSNIGAGYDVNWYQCLPGTAPKLLMFDNSNRPSGVPDRFSGSRSGASASLAITGLQAEDEADYYCQSYDSGLSGWVFGGGTKLTVL . Is its EC50 below 0.1 µg/mL?
Satisfied

A record lists MPV491 (antibody, V domains shown) VH: QVQLQESGPGLVKSSQTLSLTCTVSGGSISSVTSHWTWIRQHPGKGLEWIGYIFSSGTTYYSPSLRSRLTMSVDTSKNQFSLQLSSVTAADTAMYYCARGIYCGDSCYKGTDYWGRGTLVTVSS VL: IRLMTQTPVTLPVTPGEPASISCRSSQSLLHSNGYNYLDWYLQKPGQSPQLLIYRGSTRASGVPDRFSGSGSGTEFTLKISRVEAEDVGVYYCMQGLQTPYTFGQGTKLESR . Is its EC50 below 0.1 µg/mL?
Not satisfied

A record lists MPV483 (antibody, V domains shown) VH: EVQLVQSGAELKKPGSSVKVSCKASGDTFSNYAISWVRQAPGQGLEWMGGIIPIYNTANYAQKFQGRVTLTADESTSTAYMELSSLRSEDTAVYYCARDVRNNWSVLRGARYYYYGMDVWGQGTTVTVSS VL: DIVMTQTPFSLSASVGDRVTVTCRASQDISNSLAWFQQKPGKAPKSLIYAASSLQSGVPTRFSGGGSGTDFTLTISSLQPEDFATFYCLQYDSFPPTFGGGTKVEI . Is its EC50 below 0.1 µg/mL?
Not satisfied

A record lists MPV467 (antibody, V domains shown) VH: EVQLVESGGGVVRPGTSLRVSCAAFDFNFRDYGMHWVRQAPGKGLEWVAGIWYDGSNKDYADSVKGRFTISRDNSQNTLYLQMNSLRVEDTAVYYCARDPRTHREGALSHFDSWGQGTLVTVSS VL: PNELTQDPAVSVALGQTVRITCQGDSLRNYFAGWYQQKPGQAPLLVLYGENIRPSGIPDRFSGSSSGNTVSLTITGAQAEDEADYYCNSRDNSGNHWVFGGGTRLTVL . Is its EC50 below 0.1 µg/mL?
Not satisfied

A record lists MPV86 (antibody, V domains shown) VH: QVQLVQSGAEVKKPGSSVKVSCKASGDTFNDVALSWVRQAPGQGLEWLGGIIPFFGTANYAQRFQDRVTITADASTSTAYLELGGLRSEDTAVYYCARGWSCRNITCFMMGYYFYIMDVWGQGTLVTVSS VL: LSLSPGERATLSCRASQSVGNFLAWYQQKPGQTPRLLIQDASNRATGIPARFSGTGSGTDFTLTISSLEPEDFAVYYCQQRSNWPPTFGPGTKVDIK . Is its EC50 below 0.1 µg/mL?
Not satisfied

A record lists MPV454 (antibody, V domains shown) VH: EVQLVESGGGLVKPGGSLRLSCSTSGFVFSSYAMHWVRQAPGKGLEHVSAISSTGDNTHYADSVKGRFTISRDNSRGRLYLQMTSVRPEDAALYYCVKDLYSGRFYYFLDDWGQGTRIIVSS VL: DIQVTQSPSSLSASVGDRVTISCRASQNISNYLNWFQQRPGKAPKLLIYVASTLQSGAPSRFSGSGSGTDFTLTITDLQPEDFATYYCQQSYNTPPITFGQGTRLEIK . Is its EC50 below 0.1 µg/mL?
Not satisfied

Origin of measurements: patent US20250188153A1
